# experimental.details: Unbound fraction in rat brain
# Format: ADME, tissue-based
observation.type: fraction unbound

| molecule | measurement |
| --- | --- |
| Cn1ncc(S(=O)(=O)N2CC[C@H](C(=O)Nc3ccc4scnc4c3)[C@@H](F)C2)c1Cl (racemic) | 0.05 |
| Cc1ncc(S(=O)(=O)N2CC[C@H](C(=O)Nc3ccc4scnc4c3)[C@@H](F)C2)s1 (racemic) | 0.06 |
| Cc1nn(C)cc1S(=O)(=O)N1CC[C@H](C(=O)Nc2ccc3scnc3c2)[C@@H](F)C1 (racemic) | 0.17 |
| Cc1nn(C)cc1S(=O)(=O)N1CCC(C(=O)Nc2ccc3scnc3c2)CC1 | 0.2 |

----------
# experimental.details: Elimination half life in rat
# Type: ADME
# experimental.conditions: in vivo, read-out: beta t1/2

| smiles.entry | half-life [h] |
| --- | --- |
| Cc1nn(C)cc1S(=O)(=O)N1CCC(C(=O)Nc2ccc3scnc3c2)CC1 | 1.43 |

----------
Entries annotated with measured IC50
# target.system: Muscarinic acetylcholine receptor M1 (Homo sapiens, UniProt P11229)
# experimental.details: Antagonist activity at human muscarinic M1 receptor
# Assay type: functional
observation.type: IC50 (nM)

| smiles.entry | observation.type | comparative.sign | measurement |
| --- | --- | --- | --- |
| O=C(Nc1ccc2scnc2c1)C1CCN(S(=O)(=O)c2ccc(Cl)s2)CC1 | IC50 | > | 10000 |
| O=C(Nc1ccc2scnc2c1)C1CCN(S(=O)(=O)c2ccc3c(c2)CCO3)CC1 | IC50 | = | 2140 |

----------
# target.system: Muscarinic acetylcholine receptor M5 (Homo sapiens, UniProt P08912)
# Sequence (P08912 whole entry): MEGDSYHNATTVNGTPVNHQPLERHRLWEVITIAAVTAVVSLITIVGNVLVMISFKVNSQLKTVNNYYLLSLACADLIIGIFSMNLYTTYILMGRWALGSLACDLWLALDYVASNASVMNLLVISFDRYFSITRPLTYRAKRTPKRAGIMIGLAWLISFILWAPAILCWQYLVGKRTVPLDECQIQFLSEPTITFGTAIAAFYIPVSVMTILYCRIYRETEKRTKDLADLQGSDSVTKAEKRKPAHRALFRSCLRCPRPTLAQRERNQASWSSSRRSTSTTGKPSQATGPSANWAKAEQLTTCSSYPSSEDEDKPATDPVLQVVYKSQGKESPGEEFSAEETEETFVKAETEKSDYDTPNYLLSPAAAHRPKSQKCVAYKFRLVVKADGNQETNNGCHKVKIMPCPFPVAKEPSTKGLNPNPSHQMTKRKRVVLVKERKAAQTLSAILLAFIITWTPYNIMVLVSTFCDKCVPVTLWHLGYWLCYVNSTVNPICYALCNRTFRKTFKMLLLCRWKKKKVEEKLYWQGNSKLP
# experimental.details: Antagonist activity at human muscarinic M5 receptor expressed in CHO cells in the presence of acetylcholine by calcium mobilisation assay
In plain terms, low IC50, meaning strictly below 100 nM, gives criterion met, and everything else gives criterion not met.

| compound | category |
| --- | --- |
| C[C@@H]1C[C@H](C(=O)Nc2ccc3scnc3c2)CCN1S(=O)(=O)c1ccc2c(c1)CCO2 (racemic) | criterion not met |
| O=C(Nc1ccc2scnc2c1)C1CCN(S(=O)(=O)c2ccc3ncsc3c2)CC1 | criterion not met |
| CC1Cc2cc(S(=O)(=O)N3CCC(C(=O)Nc4ccc5scnc5c4)CC3)ccc2O1 (racemic) | criterion not met |
| Cn1ncc(S(=O)(=O)N2CC[C@H](C(=O)Nc3ccc4scnc4c3)[C@@H](F)C2)c1Cl (racemic) | criterion met |
| Cc1nc2cc(NC(=O)C3CCN(S(=O)(=O)c4ccc5c(c4)CCO5)CC3)ccc2s1 | criterion not met |
| CC1COc2ccc(S(=O)(=O)N3CCC(C(=O)Nc4ccc5scnc5c4)CC3)cc21 (racemic) | criterion not met |
| C[C@@H]1CN(S(=O)(=O)c2ccc3c(c2)CCO3)CC[C@@H]1C(=O)Nc1ccc2scnc2c1 (racemic) | criterion not met |
| O=C(Nc1ccc2scnc2c1)C1CCN(S(=O)(=O)c2ccc(Cl)s2)CC1 | criterion not met |
| Cc1nn(C)cc1S(=O)(=O)N1CC[C@H](C(=O)Nc2ccc3scnc3c2)[C@@H](F)C1 (racemic) | criterion not met |
| Cc1ncc(S(=O)(=O)N2CC[C@H](C(=O)Nc3ccc4scnc4c3)[C@@H](F)C2)s1 (racemic) | criterion met |

----------
# target.system: Muscarinic acetylcholine receptor M1 (Homo sapiens)
# Sequence (P11229 whole entry): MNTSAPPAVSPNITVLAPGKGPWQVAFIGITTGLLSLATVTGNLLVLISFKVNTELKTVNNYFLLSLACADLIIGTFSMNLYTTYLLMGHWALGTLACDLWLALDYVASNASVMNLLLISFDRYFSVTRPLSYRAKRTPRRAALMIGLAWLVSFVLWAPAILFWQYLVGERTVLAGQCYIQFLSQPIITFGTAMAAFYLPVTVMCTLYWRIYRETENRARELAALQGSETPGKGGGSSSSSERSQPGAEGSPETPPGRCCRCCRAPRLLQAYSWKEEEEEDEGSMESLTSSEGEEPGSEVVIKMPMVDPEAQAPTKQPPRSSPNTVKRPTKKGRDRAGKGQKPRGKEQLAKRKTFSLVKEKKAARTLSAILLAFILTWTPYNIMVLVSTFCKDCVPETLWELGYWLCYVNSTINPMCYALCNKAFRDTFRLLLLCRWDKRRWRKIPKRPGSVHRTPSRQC
# experimental.details: Antagonist activity at human muscarinic M1 receptor expressed in CHO cells in the presence of acetylcholine by calcium mobilisation assay
# Format: functional, cell-based
pIC50: −log10 of the molar value.
observation.type: pIC50

| compound | measurement |
| --- | --- |
| Cc1nn(C)cc1S(=O)(=O)N1CCC(C(=O)Nc2ccc3scnc3c2)CC1 | < 5.00 |
| Cc1nn(C)cc1S(=O)(=O)N1CC[C@H](C(=O)Nc2ccc3scnc3c2)[C@@H](F)C1 (racemic) | < 5.00 |

----------
# target.system: Muscarinic acetylcholine receptor M5 (Homo sapiens)
# Sequence (whole entry): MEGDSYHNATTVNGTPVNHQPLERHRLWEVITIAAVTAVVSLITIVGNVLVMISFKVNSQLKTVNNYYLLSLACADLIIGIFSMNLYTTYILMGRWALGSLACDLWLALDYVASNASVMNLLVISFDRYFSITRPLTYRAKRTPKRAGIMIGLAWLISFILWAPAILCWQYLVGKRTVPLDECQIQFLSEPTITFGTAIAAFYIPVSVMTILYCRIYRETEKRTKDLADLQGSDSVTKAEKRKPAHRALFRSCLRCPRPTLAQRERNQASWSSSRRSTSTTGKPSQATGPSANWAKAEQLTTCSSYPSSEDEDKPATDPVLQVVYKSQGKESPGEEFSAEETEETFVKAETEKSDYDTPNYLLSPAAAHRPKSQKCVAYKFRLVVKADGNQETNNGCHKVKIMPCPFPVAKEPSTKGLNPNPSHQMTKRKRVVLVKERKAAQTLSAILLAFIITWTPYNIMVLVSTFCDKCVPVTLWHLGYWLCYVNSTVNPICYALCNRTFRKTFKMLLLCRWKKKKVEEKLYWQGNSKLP
# experimental.details: Antagonist activity at human muscarinic M5 receptor expressed in CHO cells assessed as minimal acetylcholine response by calcium mobilisation assay relative to control
# Format: functional, cell-based
# Design: concentration or dose not given beside the values
# experimental.conditions: filed as antagonist

| compound | target.system | Activity / % |
| --- | --- | --- |
| Cc1ncc(S(=O)(=O)N2CC[C@H](C(=O)Nc3ccc4scnc4c3)[C@@H](F)C2)s1 (racemic) | Muscarinic acetylcholine receptor M5 (Homo sapiens) | 2 |
| Cc1nn(C)cc1S(=O)(=O)N1CC[C@H](C(=O)Nc2ccc3scnc3c2)[C@@H](F)C1 (racemic) | Muscarinic acetylcholine receptor M5 (Homo sapiens) | 3 |
| C[C@@H]1CN(S(=O)(=O)c2ccc3c(c2)CCO3)CC[C@@H]1C(=O)Nc1ccc2scnc2c1 (racemic) | Muscarinic acetylcholine receptor M5 (Homo sapiens) | 3 |
| O=C(Nc1ccc2scnc2c1)C1CCN(S(=O)(=O)c2cccnc2)CC1 | Muscarinic acetylcholine receptor M5 (Homo sapiens) | 2 |
| O=C(Nc1ccc2scnc2c1)C1CCN(S(=O)(=O)c2ccc3ncccc3c2)CC1 | Muscarinic acetylcholine receptor M5 (Homo sapiens) | 2 |
| Cc1ccc(S(=O)(=O)N2CCC(C(=O)Nc3ccc4scnc4c3)CC2)cn1 | Muscarinic acetylcholine receptor M5 (Homo sapiens) | 3 |
